// provenance: patent US20250368734A1

Molecular target: T1, cynomolgus monkey GPRC5D (cynomolgus monkey)
T1 construct: whole, on cells; HEK293T-cynoGPRC5D cells; also called cynoGPRC5D
Experiment: FACS, HEK293T-cynoGPRC5D cells; also: test concentration or dose not given here
Experimental: The subcloning plates were screened by Mirrorball assay and the subclones with good binding ability were expanded to 24-wells for confirmation tests. The specificity and cross-reactivity of these subclones were confirmed with FACS analysis. […] Median fluorescence intensity (MFI) was measured by FACS analysis, […]
observed_property: MFI
Give bare numbers.

These recorded examples may help you get a feel for the data.
[
  {
    "binder": "20C4E1 (antibody, V domains shown, Mouse monoclonal antibody from hybridoma subclone) VH: EVRLVESGGALVRPGGSLKLSCAASGFTFSDYGMHWVRQAPEKGLEWIAFISSVSFTIYYADTVKGRFTISRDNAKNTLFLQMTSLRSEDTALYYCTRLGPHWYFDVWGTGTTVTVSS VL: DVVLTQTPLSLPVSLGDQASISCRSSQSLVYSNGNTYLHWFLQKPGQSPQLLIYKVSNRFSGVPDRFSGSGSGTDFTLKISRVEAEDLGVYFCSQSTPVPTFGGGTKLEIK",
    "observed_property": "MFI",
    "obs_value": 31300
  },
  {
    "binder": "36A3G8 (antibody, V domains shown, Mouse monoclonal antibody from hybridoma subclone) VH: QVQLQQSGAELARPGASVKMSCKASGYTFTTYTMHWIKQRPGQDLEWIGFINPSSGYTKYNQNFKDKATLTADKSSTTAYMQLNSLTSEDSAVYYCASPYGNIYFDVWGTGTTVTVSS VL: DIVMTQSQKFMSTAVGDRVSITCKASQNVGTAVAWYQQKPGQSPKLLIYSASNRYTGVPDRFTGSGSGTDFTLTISNMQSEDLADYFCQQYSSYPLTFGAGTKLELK",
    "observed_property": "MFI",
    "obs_value": 3110
  }
]

Give the reported value of MFI for this record: 12G12C2 (antibody, V domains shown, Mouse monoclonal antibody from hybridoma subclone) VH: QIQLVQSGPELKMPGETVKISCKASGYTFTTYGLSWVKQAPGKGLKWMGWINTFSGVPIYADDFKGRFAFSLETSASTAYLQINNLKNEDTATYFCARWGIRQRGDYWGQGATLTVSS VL: QIVLTQSPAIMSASPGEKVTMTCSASSSVSYLHWYQQKSGTSPKRWIYDTSKLASGVPVRFSGSGSETSYSLTISSMEAEDAATYYCQQWTSNPPTFGGGTKLEIK
24700
